Tested on: Saccharomyces cerevisiae
Test: protein stability index of tFT-peptide fusion (C-terminal peptide) (PSI (0-1 scale)); higher = more stable (slower turnover);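 further: PSI is a weighted mean of sequencing reads over stability bins, variants kept only with over 10 reads, mCherry proximal and sfGFP distal, peptide attached via GGGS linker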
Settings: genetic background: doa10 deletion; temperature: 30 C
Experimental Readout: protein stability index
Answers are plain numbers.

PSIALVRLDVIC : 0.297
WVCCFVWGCLIR : 0.295

Which measured protein stability index belongs to LVAGFVFIFFYR , tested on Saccharomyces cerevisiae?
0.298

====

System: Saccharomyces cerevisiae
Test: protein stability index of tFT-peptide fusion (C-terminal peptide) (PSI (0-1 scale)); higher = more stable (slower turnover)
Settings: genetic background: wild type; temperature: 30 C
Experimental Readout: protein stability index
Give bare numbers.

GWGLCGRAAGVE : 0.692
LPPPPPPPASPD : 0.699
LVFREISSRHEI : 0.711
LERCKSLDSIVL : 0.701
ITRAVLPARLFR : 0.705
PHPPPPPPALTP : 0.704

Please give protein stability index for each item listed below.
1. RPPPPPPPSPHL
2. PPSDRPTVPPPP
3. VGMVTADGRLAT
4. PPSWLPLLPPPP

1. 0.692
2. 0.709
3. 0.692
4. 0.688
